These entries and their values trace back to patent EP4782453A1.

system: MV-4-11 (carrying MLL-AF4); test: Inhibition of proliferation of human tumor cells (Alamar Blue, 7 days), MV-4-11; assay type: cell-based; conditions: Homo sapiens, MV4-11, 168 h, MV-4-11 cells (carrying MLL-AF4), method calls the value GI50
Measure: IC50 (nM)

# example entries with known answers
Compound | Tested on | Measure | Unit of measurement | Measurement
Cc1nc(F)c2c(-c3ccc(F)cc3C(=O)N3CCOC[C@H]3C)cc(C3CN([C@H](CCCN4C[C@H]5C[C@@H]4CO5)C(C)C)C3)cn12 | MV-4-11 (carrying MLL-AF4) | IC50 | nM | 4.1
CCN(C(=O)c1cc(F)ccc1-c1cc([C@H]2CC[C@H](NCc3ccc(-c4cc(OC)c(OC)nn4)cc3)CC2)cn2cncc12)C(C)C | MV-4-11 (carrying MLL-AF4) | IC50 | nM | 9.4
CCN(C(=O)c1cc(F)ccc1-c1cc(C2CN([C@H](CCCN3CCN(C)CC3)C(C)C)C2)cn2c(C)ncc12)C(C)C | MV-4-11 (carrying MLL-AF4) | IC50 | nM | 0.97

a = Cc1nc(F)c2c(-c3ccc(F)cc3C(=O)N3CCOC[C@H]3C)cc(C3CN(CC4CCN(C(=O)C(F)F)CC4)C3)cn12
b = Cc1ncc2c(-c3ccc(F)cc3C(=O)N3CCC[C@H]3C)cc(C3CN(C(C)C4CCOCC4)C3)cn12 (stereo partly shown)
Query: Which of these two has the smaller recorded IC50: a or b ? Let me know the label of the one you choose.
Reply: b

1 = Cc1nc(F)c2c(-c3ccc(F)cc3C(=O)N3CCOC[C@H]3C)cc(C3CN(CC4CCN(C(=O)C5CC5)CC4)C3)cn12
2 = CCN(C(=O)c1cc(F)ccc1-c1cc(C2CN([C@H](CN3CCN(CCO)CC3)C(C)C)C2)cn2c(C)ncc12)C(C)C
3 = CNCCCC(C(C)C)N1CC(c2cc(-c3ccc(F)cc3C(=O)N(CC(F)F)C(C)C)c3cnc(C)n3c2)C1 (stereo not shown)
4 = Cc1nc(F)c2c(-c3ccc(F)cc3C(=O)N3[C@H](C)COC[C@H]3C)cc(C3CN(CC4CCN(C(=O)CC#N)CC4)C3)cn12
Query: Form: Sort by [IC50] Order [ ascending ] Lab note: record answer as labels in requested order.
Reply: 3, 4, 2, 1

a = CCN(C(=O)c1cc(F)ccc1-c1cc(N2CCC(NCc3ccc(-c4cc(OC)c(OC)nn4)cc3)CC2)cn2cncc12)C(C)C
b = Cc1nc(F)c2c(-c3ccc(F)cc3C(=O)N3CCOC[C@H]3C)cc(C3CN([C@@H](C)C4CCN(C(=O)CC#N)CC4)C3)cn12
Query: # compare IC50 for a vs b ; return the one with the smaller value Please identify the chosen entry by its label.
Reply: b
(b: 5.3 nM, a: 49 nM)

====

Overview of reported pIC50 across a group of compounds:
biological target: Menin-MLL (Homo sapiens, UniProt O00255); construct: His-Menin (M1-L615 end); purchased BIORTUS BP9210; assay: Inhibitory activity against Menin-MLL binding (fluorescence polarization); settings: read-out: Menin-MLL IC50; fluorescence polarization; 150 nM His-Menin, 15 nM FITC-MLL; 25°C for 60 min
Sequence (O00255 1-615 isoform O00255-1): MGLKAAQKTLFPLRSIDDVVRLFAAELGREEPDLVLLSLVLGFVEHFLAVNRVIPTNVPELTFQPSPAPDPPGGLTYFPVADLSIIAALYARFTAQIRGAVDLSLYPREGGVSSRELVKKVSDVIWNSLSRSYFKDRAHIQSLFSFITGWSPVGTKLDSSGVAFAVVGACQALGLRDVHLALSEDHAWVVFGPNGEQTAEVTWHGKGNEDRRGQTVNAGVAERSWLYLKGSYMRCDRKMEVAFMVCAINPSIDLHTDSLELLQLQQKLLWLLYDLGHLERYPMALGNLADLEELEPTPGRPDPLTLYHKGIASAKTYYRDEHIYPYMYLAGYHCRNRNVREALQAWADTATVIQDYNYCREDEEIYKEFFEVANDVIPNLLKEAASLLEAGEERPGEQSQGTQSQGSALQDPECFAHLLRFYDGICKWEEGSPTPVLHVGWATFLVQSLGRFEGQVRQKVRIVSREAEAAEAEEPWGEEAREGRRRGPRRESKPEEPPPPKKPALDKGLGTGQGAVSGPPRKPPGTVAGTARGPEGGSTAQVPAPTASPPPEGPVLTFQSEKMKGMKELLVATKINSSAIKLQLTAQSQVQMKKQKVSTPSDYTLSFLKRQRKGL
API: returns pIC50 as number; meaning -log10 of concentration in mol/L.

Compound | pIC50
CCS(=O)(=O)N[C@H]1CC[C@H](CN2CC(c3cc(-c4ccc(F)cc4C(=O)N4[C@H](C)COC[C@H]4C)c4c(F)nc(C)n4c3)C2)CC1 | 8.19

Query: # returns recorded pIC50 (system: Menin-MLL (Homo sapiens, UniProt O00255)) for CCS(=O)(=O)N[C@H]1CC[C@@H](CN2CC(c3cc(-c4ccc(F)cc4C(=O)N4[C@H](C)COC[C@H]4C)c4c(F)nc(C)n4c3)C2)CC1
Reply: 8.40

Query: And what about the compound CCN(C(=O)c1cc(F)ccc1-c1cc(C2=CCC(NCc3ccc4oc(=O)[nH]c4c3)CC2)cn2cncc12)C(C)C (stereo not drawn) ?
Reply: 7.84
